tested-on: Jak2 (UniProt O60674)
Sequence (O60674 whole entry, looked up): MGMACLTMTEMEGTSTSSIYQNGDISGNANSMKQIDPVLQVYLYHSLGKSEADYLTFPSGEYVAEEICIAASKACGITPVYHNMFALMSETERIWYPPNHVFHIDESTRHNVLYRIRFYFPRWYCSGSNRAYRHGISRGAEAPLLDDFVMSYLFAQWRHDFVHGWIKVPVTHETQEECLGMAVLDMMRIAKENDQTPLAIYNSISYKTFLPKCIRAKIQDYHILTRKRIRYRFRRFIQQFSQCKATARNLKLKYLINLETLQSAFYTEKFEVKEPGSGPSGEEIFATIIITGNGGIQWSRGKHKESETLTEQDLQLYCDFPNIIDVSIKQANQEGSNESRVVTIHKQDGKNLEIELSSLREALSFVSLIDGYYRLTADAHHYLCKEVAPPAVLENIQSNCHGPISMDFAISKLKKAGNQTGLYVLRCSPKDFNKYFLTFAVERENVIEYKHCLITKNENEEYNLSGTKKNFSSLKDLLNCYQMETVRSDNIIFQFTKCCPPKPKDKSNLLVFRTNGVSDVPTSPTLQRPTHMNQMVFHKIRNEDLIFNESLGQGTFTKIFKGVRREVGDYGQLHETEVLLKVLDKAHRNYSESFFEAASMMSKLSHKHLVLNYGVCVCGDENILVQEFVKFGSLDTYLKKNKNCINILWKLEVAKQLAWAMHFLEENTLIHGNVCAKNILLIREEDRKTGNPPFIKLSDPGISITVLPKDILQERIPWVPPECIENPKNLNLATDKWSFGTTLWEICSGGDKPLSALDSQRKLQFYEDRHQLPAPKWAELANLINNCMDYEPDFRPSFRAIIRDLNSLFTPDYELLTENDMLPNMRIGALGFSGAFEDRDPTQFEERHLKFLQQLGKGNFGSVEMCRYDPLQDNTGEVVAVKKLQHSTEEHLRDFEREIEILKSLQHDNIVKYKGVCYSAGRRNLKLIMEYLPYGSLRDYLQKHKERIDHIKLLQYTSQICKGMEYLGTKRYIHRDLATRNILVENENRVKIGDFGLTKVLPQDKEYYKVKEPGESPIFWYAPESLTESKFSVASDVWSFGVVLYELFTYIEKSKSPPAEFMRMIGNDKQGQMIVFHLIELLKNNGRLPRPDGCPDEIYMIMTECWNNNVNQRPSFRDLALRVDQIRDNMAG
experimental-details: phosphorylation enrichment, bacterial display (enrichment ratio); higher = better substrate or ligand; peptides without Tyr show the background
Classification by phosphorylation enrichment | ranges: class 1 = under 0.8, class 2 = from 0.8 up to 1, class 3 = 1 and over

Answered examples (3):
{"columns": ["seq", "tested-on", "category-label"],
 "data": [
  ["IVKAFYVRARA [AIPL1_Y268_YF]", "Jak2 (UniProt O60674)", "class 2"],
  ["TNYPLYLRSLE [MTM1_Y71_R69P]", "Jak2 (UniProt O60674)", "class 3"],
  ["GGTTLYPGIAD [ACTC1_Y308_M307L]", "Jak2 (UniProt O60674)", "class 1"]
]}

Challenge: Form field 'band' for SGPRRYTVAAL [TTR_Y125_I127V]
Response given: class 1

Challenge: Could you do the same for ERLWVYGMSSS [F8_Y1728_D1727V] , please?
Response given: class 3

Challenge: Could you do the same for TNEFEYDELIV [TGM1_Y136_D132N_YF] , please?
Response given: class 3

Challenge: Could you do the same for RFLRGYRQYAY [HLA-A_Y137_D140Y] , please?
Response given: class 3

Challenge: Could you do the same for LHAALYKRKLL [TTLL5_Y542_E543K] , please?
Response given: class 3

Challenge: Could you do the same for QTWKTYVRQQQ [SFI1_Y164] , please?
Response given: class 1

Challenge: Could you do the same for AEPNIYQEKLS [USP54_Y1233_D1231N] , please?
Response given: class 2

Challenge: Could you do the same for RGFDTYFGFLL [ARSB_Y165_YF] , please?
Response given: class 3

Challenge: Could you do the same for CPYNLYAAQLS [HGD_Y40_E42A] , please?
Response given: class 2

Challenge: Could you do the same for AQMAMYFWEMS [TRPM4_Y577_G582S] , please?
Response given: class 3

Challenge: Could you do the same for IFGVSYGEYRY [CFTR_Y512_D513G] , please?
Response given: class 2

Challenge: Could you do the same for GSIQQYIFKQE [PRG4_Y1271_YF] , please?
Response given: class 1

Challenge: Could you do the same for TNYRFYLRSLE [MTM1_Y71_L70F] , please?
Response given: class 3

Challenge: Could you do the same for LLFRVYGLESL [INSR_Y94] , please?
Response given: class 3

Challenge: Could you do the same for PELIDYGKLRK [ACTN1_Y193] , please?
Response given: class 1

Challenge: Could you do the same for QTLEAYIRCNK [SPAST_Y604_W607C] , please?
Response given: class 3

Challenge: Could you do the same for GPCKAYELSQR [SETX_Y1297_R1294C] , please?
Response given: class 1

###

tested-on: Grb2 SH2 (UniProt P62993)
Sequence (P62993 whole entry, looked up): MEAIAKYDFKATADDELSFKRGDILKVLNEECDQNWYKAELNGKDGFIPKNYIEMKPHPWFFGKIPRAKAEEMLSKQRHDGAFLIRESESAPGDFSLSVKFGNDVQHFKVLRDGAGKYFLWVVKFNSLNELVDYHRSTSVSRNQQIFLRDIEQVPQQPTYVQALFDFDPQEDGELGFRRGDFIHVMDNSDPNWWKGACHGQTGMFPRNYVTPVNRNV
experimental-details: SH2 binding enrichment of the phosphorylated peptide, bacterial display (enrichment ratio); higher = better substrate or ligand; peptides without Tyr show the background
The sequences listed here are annotated with their SH2 binding enrichment.
Lab note: record the figure alone, no unit after it.

Challenge: Which SH2 binding enrichment reading was recorded for the sequence FAAAGYGSLEA [EPHA10_Y959] ?
Response given: 0.926

Challenge: Could you do the same for SVTCTYSPALT [TP53_Y126_N131T] , please?
Response given: 0.666

Challenge: Could you do the same for QRDSSYYWEIE [RAF1_Y340] , please?
Response given: 0.762

Challenge: Could you do the same for QSAGQYSSQGL [TNNI3K_Y788] , please?
Response given: 0.944

###

tested-on: c-Src SH2
experimental-details: SH2 binding enrichment of the phosphorylated peptide, bacterial display (enrichment ratio); higher = better substrate or ligand; peptides without Tyr show the background
The sequences listed here are annotated with their SH2 binding enrichment.
Lab note: record the figure alone, no unit after it.

Completed entries (count: 4):
{"columns": ["seq", "tested-on", "SH2 binding enrichment"],
 "data": [
  ["RQQQDYWLKDV [ANPEP_Y600_I603K]", "c-Src SH2", 0.675],
  ["GIADDYDKKKP [EIF1_Y54_L59P]", "c-Src SH2", 0.895],
  ["RELGEYALAEY [ALDH1A3_Y492]", "c-Src SH2", 1.18],
  ["LKSEMYQKLFK [RGS13_Y146_L150F]", "c-Src SH2", 0.982]
]}

Challenge: Give recorded SH2 binding enrichment with c-Src SH2 for the following sequence: RLLRGYDQSAY [HLA-C_Y137]
Response given: 0.645

Challenge: Could you do the same for FLAATYPTVGQ [NF1_Y2508_YF] , please?
Response given: 0.57

Challenge: Could you do the same for NACGLYYKLHN [GATA2_Y376] , please?
Response given: 0.716

Challenge: Could you do the same for SLNAVYPKAGS [OAS3_Y376_R378K] , please?
Response given: 0.456

###

The sequences listed here are annotated with their phosphorylation enrichment.
tested-on: Fes (UniProt P07332)
Sequence (P07332 whole entry, looked up): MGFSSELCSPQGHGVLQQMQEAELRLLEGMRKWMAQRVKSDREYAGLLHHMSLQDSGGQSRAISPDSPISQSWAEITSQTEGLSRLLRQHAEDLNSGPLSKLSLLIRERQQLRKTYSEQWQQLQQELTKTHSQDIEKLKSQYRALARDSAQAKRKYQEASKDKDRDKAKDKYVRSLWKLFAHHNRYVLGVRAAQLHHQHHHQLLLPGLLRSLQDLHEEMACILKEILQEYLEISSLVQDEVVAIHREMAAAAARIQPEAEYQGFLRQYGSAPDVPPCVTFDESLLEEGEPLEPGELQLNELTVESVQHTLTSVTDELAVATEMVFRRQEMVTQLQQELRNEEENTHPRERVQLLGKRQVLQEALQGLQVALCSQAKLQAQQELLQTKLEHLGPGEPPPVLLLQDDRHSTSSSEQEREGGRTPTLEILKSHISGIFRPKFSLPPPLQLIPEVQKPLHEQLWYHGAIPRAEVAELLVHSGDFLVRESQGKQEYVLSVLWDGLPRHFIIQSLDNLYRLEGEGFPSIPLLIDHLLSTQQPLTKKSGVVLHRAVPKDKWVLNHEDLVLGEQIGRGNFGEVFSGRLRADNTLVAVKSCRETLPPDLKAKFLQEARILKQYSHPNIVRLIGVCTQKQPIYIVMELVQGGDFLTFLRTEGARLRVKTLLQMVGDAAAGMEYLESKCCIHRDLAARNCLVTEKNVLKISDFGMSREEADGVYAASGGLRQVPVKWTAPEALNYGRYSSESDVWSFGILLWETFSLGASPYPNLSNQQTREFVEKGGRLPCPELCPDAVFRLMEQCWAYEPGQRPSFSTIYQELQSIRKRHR
experimental-details: phosphorylation enrichment, bacterial display (enrichment ratio); higher = better substrate or ligand; peptides without Tyr show the background
Lab note: record the figure alone, no unit after it.

Completed entries (count: 3):
{"columns": ["seq", "phosphorylation enrichment"],
 "data": [
  ["DSDTDYGSGYP [RNASEH2A_Y206_L202S]", 1.55],
  ["RGSQQYRALPV [TUBB8_Y281_T285P]", 0.686],
  ["IGEVVYQWAVM [GRIN2A_Y502_R504W]", 1.48]
]}

Challenge: Which phosphorylation enrichment reading was recorded for the sequence KPVDTYYDSTR [DYNC2H1_Y2230_M2227V] ?
Response given: 0.809

Challenge: Could you do the same for VDTRAYFTSAT [MT-CO1_Y304] , please?
Response given: 0.687

###

Test system: c-Src
experimental-details: phosphorylation enrichment, bacterial display (enrichment ratio); higher = better substrate or ligand; peptides without Tyr show the background
Returns Met if the recorded phosphorylation enrichment is greater than or equal to 1, and Not met otherwise.

{"columns": ["seq", "category-label"],
 "data": [
  ["SMEGLYSSAQD [CLIC5_Y111_T114A]", "Met"],
  ["LSVMSYDLGMF [GBA3_Y174]", "Not met"],
  ["FGLDRYQCDCT [PTGS1_Y54]", "Not met"],
  ["ELTSVYGSRAR [SENP1_Y349_D350G]", "Met"],
  ["YTFTSYYMHWV [IGHV1-46_Y51]", "Not met"]
]}

Challenge: Please indicate if the recorded phosphorylation enrichment for QNTADYYDLYG [PTPN11_Y62_G60A] meets or exceeds 1.
Response given: Met

###

tested-on: Grb2 SH2 (UniProt P62993)
experimental-details: SH2 binding enrichment of the phosphorylated peptide, bacterial display (enrichment ratio); higher = better substrate or ligand; peptides without Tyr show the background
The sequences listed here are annotated with their SH2 binding enrichment.
Lab note: record the figure alone, no unit after it.

Completed entries (count: 4):
{"columns": ["seq", "attribute-measured", "endpoint-result"],
 "data": [
  ["YGCGMYSHLQG [LGR4_Y848_D844G]", "SH2 binding enrichment", 0.854],
  ["HSVVQYVGGVM [FGGY_Y136_L134V]", "SH2 binding enrichment", 0.885],
  ["LGLDEYLDKLK [FMNL2_Y352]", "SH2 binding enrichment", 0.78],
  ["PSDSGYSYETI [MAP1B_Y1921]", "SH2 binding enrichment", 1.79]
]}

Challenge: Which SH2 binding enrichment reading was recorded for the sequence GESVSYLFSHV [PRPS1_Y311] ?
Response given: 0.734

Challenge: Could you do the same for SFLSYYTSHVQ [NEFL_Y443_P440L] , please?
Response given: 1.17

Challenge: Could you do the same for FADIAYNYRHA [PAH_Y166_G171A] , please?
Response given: 0.852

###

System: c-Abl (mouse)
experimental-details: phosphorylation enrichment, bacterial display (enrichment ratio); higher = better substrate or ligand; peptides without Tyr show the background
Returns criterion met if the recorded phosphorylation enrichment is greater than or equal to 0.8, and criterion not met otherwise.

{"columns": ["seq", "category-label"],
 "data": [
  ["ADLAKYICENQ [ALB_Y287]", "criterion met"],
  ["QDIMAYRSREV [BCL6_Y157_G159S]", "criterion not met"],
  ["WLFFRYLAIGC [ATP2A2_Y836]", "criterion met"],
  ["GYAGKYIAMVM [CYP19A1_Y441_C437Y]", "criterion met"],
  ["RRNTYYASIAK [ACADM_Y353]", "criterion met"]
]}

# evaluate next
Challenge: Please indicate if the recorded phosphorylation enrichment for MARDIYRASYY [ALK_Y1278] meets or exceeds 0.8.
Response given: criterion met
